# TARGET UNDER TEST: HLA-A*0203 (human)
# TEST METHOD NOTES: competition with 125I standard peptide for purified HLA; gel filtration
RECORDED METRIC: IC50 (nM)

Here is how some binders turned out for IC50.
INSERT INTO assay_data (binder, value_unit, value_reported) VALUES
  ('SLSLGFLFLV (modifications not checked) [Peptide 1419.52 … (PAP.13.V10)]', 'nM', 17),
  ('KVTEFMLCAGV (modifications not checked) [Peptide 1418.71 … (HuK2.191.V11)]', 'nM', 26);

(I) LTFFWLDRSV (modifications not checked) [Peptide 1418.23 … (PAP.21.T2)]
(II) LLWQPIPVHV (modifications not checked) [Peptide 1419.69 … (PAP.136.V10)]
Query: Would you let me know which has the greater IC50 value, I or II ? Indicate which entry you chose by stating its label.
Result: II

FYI, the data here is from patent US20070020327A1.
